- study.system: T1, hPRLR.mFc (soluble dimeric human PRLR) (Homo sapiens, UniProt P16471)
- T1 construct: dimeric (hPRLR.mFc)
- T1 sequence (P16471 with tags, fused parts or gaps): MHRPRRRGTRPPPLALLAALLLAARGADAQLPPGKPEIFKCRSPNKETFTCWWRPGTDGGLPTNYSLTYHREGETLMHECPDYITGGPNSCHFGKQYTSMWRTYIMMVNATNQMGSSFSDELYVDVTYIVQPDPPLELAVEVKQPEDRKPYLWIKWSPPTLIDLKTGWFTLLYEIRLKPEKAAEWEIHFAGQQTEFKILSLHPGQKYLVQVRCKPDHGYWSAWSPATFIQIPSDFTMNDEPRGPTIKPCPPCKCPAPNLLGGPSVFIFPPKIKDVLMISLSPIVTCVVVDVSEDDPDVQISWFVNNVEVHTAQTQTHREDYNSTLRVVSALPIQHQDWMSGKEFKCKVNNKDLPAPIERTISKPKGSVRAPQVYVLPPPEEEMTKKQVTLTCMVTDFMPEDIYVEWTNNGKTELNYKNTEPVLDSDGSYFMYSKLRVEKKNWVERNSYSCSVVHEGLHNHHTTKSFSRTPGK
- experimental.protocol: Surface plasmon resonance (Biacore T200), mAb-capture format
- Type: binding
- condition.label: 25° C., antibody-capture format, analyte hPRLR.mFc
reported.endpoint: pKd
// pKd: -log10(molar conc.)

Sample answers from the record:
molecule	pKd
H1H6803P: anti-PRLR antibody, human IgG1 Fc; HCVR/LCVR SEQ ID NOs 226/234 (antibody, V domains shown, human IgG1 Fc) VH: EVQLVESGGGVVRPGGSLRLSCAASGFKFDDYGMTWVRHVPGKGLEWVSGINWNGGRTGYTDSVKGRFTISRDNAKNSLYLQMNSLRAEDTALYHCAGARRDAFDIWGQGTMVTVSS VL: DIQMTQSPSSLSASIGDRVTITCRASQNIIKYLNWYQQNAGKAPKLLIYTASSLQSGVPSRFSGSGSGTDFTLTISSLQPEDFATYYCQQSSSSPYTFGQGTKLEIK	9.22
H1H6958N2: human IgG1 Fc form of H2M6958N2; anti-PRLR, receptor blocking; HCVR/LCVR SEQ ID NOs 290/298 (antibody, V domains shown, human IgG1 Fc) VH: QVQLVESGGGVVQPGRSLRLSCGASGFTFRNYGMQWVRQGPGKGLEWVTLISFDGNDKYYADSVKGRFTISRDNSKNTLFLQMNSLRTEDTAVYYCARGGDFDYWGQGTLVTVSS VL: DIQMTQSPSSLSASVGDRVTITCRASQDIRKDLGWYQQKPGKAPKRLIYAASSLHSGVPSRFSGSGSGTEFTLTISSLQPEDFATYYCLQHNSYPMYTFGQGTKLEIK	10.06
H1H6966N: human IgG1 Fc form of H2M6966N; anti-PRLR; HCVR/LCVR SEQ ID NOs 338/346 (antibody, V domains shown, human IgG1 Fc) VH: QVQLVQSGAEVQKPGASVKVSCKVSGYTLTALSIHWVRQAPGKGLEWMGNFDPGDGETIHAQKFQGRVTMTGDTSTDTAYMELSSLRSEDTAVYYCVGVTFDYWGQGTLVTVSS VL: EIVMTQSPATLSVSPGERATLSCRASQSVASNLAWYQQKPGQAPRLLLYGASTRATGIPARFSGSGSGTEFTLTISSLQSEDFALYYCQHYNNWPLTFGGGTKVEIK	10.36

[ask] Return the recorded pKd value; entry: H1H6800P: anti-PRLR antibody, human IgG1 Fc; HCVR/LCVR SEQ ID NOs 194/202 (antibody, V domains shown, human IgG1 Fc) VH: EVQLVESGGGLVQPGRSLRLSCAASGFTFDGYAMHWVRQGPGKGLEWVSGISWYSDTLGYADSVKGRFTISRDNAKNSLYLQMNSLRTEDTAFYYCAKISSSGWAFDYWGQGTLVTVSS VL: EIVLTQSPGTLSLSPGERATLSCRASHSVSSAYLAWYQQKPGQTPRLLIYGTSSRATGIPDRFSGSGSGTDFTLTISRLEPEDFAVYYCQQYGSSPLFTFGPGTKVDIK
[reply] 9.74
